B1: Membrane-associated guanylate kinase, WW and PDZ domain-containing protein 2, residues 296 to 340; numbered along this chain, Q86UL8 (parent)
chain: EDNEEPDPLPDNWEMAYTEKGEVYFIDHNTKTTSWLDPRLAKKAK

- Variants of: B1
- Assay: abundance fitness (aPCA) (normalised: wild type 0, dead -1); higher = more abundant; growth selection in yeast, the domain comes from the species named
- Assay Setup: Homo sapiens
Each entry gets NOT MET if its abundance fitness stays under -0.3, and MET if its abundance fitness is -0.3 or above.

Exercise: Entry G21P : is its abundance fitness no less than -0.3?
Key: NOT MET

Exercise: Entry N12W : is its abundance fitness no less than -0.3?
Key: MET

---
Exercise: Entry P10F : is its abundance fitness no less than -0.3?
Key: NOT MET

Exercise: Entry K45R : is its abundance fitness no less than -0.3?
Key: MET

Exercise: Entry G21K : is its abundance fitness no less than -0.3?
Key: MET

Exercise: Entry D7W : is its abundance fitness no less than -0.3?
Key: MET

Exercise: Entry P10S : is its abundance fitness no less than -0.3?
Key: NOT MET

Exercise: Entry K20W : is its abundance fitness no less than -0.3?
Key: MET

Exercise: Entry P6D : is its abundance fitness no less than -0.3?
Key: MET

Exercise: Entry W13V : is its abundance fitness no less than -0.3?
Key: NOT MET

Exercise: Entry W35Y : is its abundance fitness no less than -0.3?
Key: MET

Exercise: Entry F25R : is its abundance fitness no less than -0.3?
Key: NOT MET

Exercise: Entry H28P : is its abundance fitness no less than -0.3?
Key: NOT MET

Values were extracted from the Human Domainome abundance scans (Beltran et al. 2025).
